Target: T1, recombinant His-tagged Der p1 (dust mite, UniProt P08176 99-320, limits assumed)
T1 construct: Recombinant His-tagged protein made by the applicant; also called Der p1-His; Der pl; not shown: His tag
T1 sequence (looked up): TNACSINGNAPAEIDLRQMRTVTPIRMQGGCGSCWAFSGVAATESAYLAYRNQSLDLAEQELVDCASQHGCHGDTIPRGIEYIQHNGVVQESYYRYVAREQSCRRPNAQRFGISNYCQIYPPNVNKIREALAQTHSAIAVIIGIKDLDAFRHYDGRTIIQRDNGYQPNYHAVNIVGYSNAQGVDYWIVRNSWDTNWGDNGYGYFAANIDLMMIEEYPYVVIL
Assay: ELISA, Der p1 on plate, biotinylated peptide at 0.123, duplicate 2
No end group written: not given here.

binder	outputUnit	OD450
YPTWAYR (also: biotinylated, site not given here, 7-amino acid peptide from a phage display library) [SDAB22110-2-C3]	OD450	0.065
GIHMALM (also: biotinylated, site not given here, 7-amino acid peptide from a phage display library) [SDAB22110-2-B2]	OD450	0.066
HSGPECG (also: biotinylated, site not given here, 7-amino acid peptide from a phage display library) [SDAB22110-2-D3]	OD450	0.906
AVVSFYP (also: biotinylated, site not given here, 7-amino acid peptide from a phage display library) [SDAB22110-2-F1]	OD450	0.075
VVAFGIS (also: biotinylated, site not given here, 7-amino acid peptide from a phage display library) [SDAB22110-2-G1]	OD450	0.073
LTGYGMS (also: biotinylated, site not given here, 7-amino acid peptide from a phage display library) [SDAB22110-2-D9]	OD450	0.068
